- assayOverview: Standard protocol for determination of kcat and KM (continuous spectrophotometric assay, Acetyl CoA hydrolysis at 235 nm)
- Assay type: biochemical
- testParameters: purified protein; about 23° C.; 20 mM HEPES pH 6.8, 10% ethylene glycol, 0.2 mM acetyl CoA
reportedEndpoint: log10 Kcat (log10 of the value in min⁻¹)
# values: log10(Kcat), units min⁻¹

Use these answered entries as a reference point.
// field: log10 Kcat; key: SEQ ID NO: 429: GAT polypeptide (protein, 9_22B1, GAT polypeptide) MIEVKPINAEDTYEIRHRILRPNQPLEACKYETDLLGGTFHLGGYYRGKLVSIASFHQAEHPELEGQKQYQLRGMATLEGYREQKAGSTLIRHAEELLRKKGADLLWCNARTSASGYYKKLGFSEQGEVYDLPPTGPHILMYKKLT ; value = 1.70

// field: log10 Kcat; key: SEQ ID NO: 354: GAT polypeptide (protein, 2_8C3, GAT polypeptide) MIEVKPINAEDTYEIRHRILRPNQPLEACMYETDLLGGTFHLGGYYRDRLISIASFHQAEHSELEGQKQYQLRGMATLEGYREQKAGSTLIRHAEELLRKKGADLLWCNARTSASGYYEKLGFSEQGEVYDIPPIGPHILMYKKLT ; value = 1.39

// field: log10 Kcat; key: SEQ ID NO: 461: GAT polypeptide (protein, 11_3C12, GAT polypeptide) MIEVKPINAEDTYELRHRILRPNQPLEVCMYETDLLRGAFHLGGFYGGKLISIASFHQAEHPDLQGQKQYQLRGMATLEGYRDQKAGSSLIRHAEQLLRKRGADLLWCNARTSASGYYKKLGFSEQGEIFETPPVGPHILMYKRIT ; value = 1.69

// field: log10 Kcat; key: SEQ ID NO: 482: GAT polypeptide (protein, 1_4H1, GAT polypeptide) MIEVKPINAEDTYELRHRILRPNQPLEACMYETDLLRGSFHLGGFYRGKLISIASFHQAEHSDLQGQKQYQLRGMATLEGYREQKAGSTLIRHAEQLLRKRGADLLWCNARTSASGYYKRLGFSEHGEVFDTPPVGPHILMYKRLT ; value = 2.37

Others:
// field: log10 Kcat; key: SEQ ID NO: 447: GAT polypeptide (protein, 0_6B4, GAT polypeptide) MLEVKPINAEDTYELRHRILRPNQPIEACMYESDLLRGALHLGGFYRGKLISIASFHQAEHSDLQGQKQYQLRGMATLEGFRDQKAGSSLIRHAEQILRKRGADLLWCNARTSASGYYKKLGFSEQGKVFDTPPVGPHILMYKRIT ; value = 2.40

// field: log10 Kcat; key: SEQ ID NO: 295: GAT polypeptide (protein, 12_7G11, GAT polypeptide) MIEVKPINAEDTYEIRHRILRPNQPLEACKYETDLLGGTFHLGGYYRGKLISIASFHQAEHSELEGQKQYQLRGMATLEGYREQKAGSTLIRHAEELLRKKGADLLWCNARTSASGYYKKLGFSEQGEVYDTPPVGPHILMYKKLT ; value = 2.37

// field: log10 Kcat; key: SEQ ID NO: 358: GAT polypeptide (protein, 3B_10G7, GAT polypeptide) MIEVKPINAEDTYEIRHRILRPNQPLEACMYETDLLGGTFHLGGYYRGKLISIASFHQAEHSELEGQKQYQLRGMATLEGYREQKAGSTLIRHAEELLRKKGADLLWCNARTSASGYYKKLGFSEQGGVYDIPPIGPHILMYKKLT ; value = 1.29
